Value source: PubChem BioAssay AID1209

target: Mannose-6-phosphate isomerase (Homo sapiens); test: inhibitors of human PMI, primary screen, biochemical, fluorescence intensity, coupled assay (AID 1209); conditions: purified PMI enzyme, at 20 µM, active compounds read high;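 further: plate controls were DMSO vehicle for no effect and wells lacking substrate for full effect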
Among all 190,000 compounds or so, about 810 (0.43%) were called active. The sample holds actives, similar compounds and a random draw of the others, so the mix is not that of the screen.
MEASURED_QUANTITY: inhibition (%)
Answer with a number only, understood to be in %.

Please fill in: inhibition reported for Cc1ccc(NS(=O)(=O)c2cc(NC(=O)c3ccc4c(c3)NC(=O)CS4)ccc2C)c(C)c1 = 41.1

Please fill in: inhibition reported for COc1ccc(NS(=O)(=O)c2cc(NC(=O)c3ccc(F)cc3)ccc2OC)cc1 = 14.1

Please fill in: inhibition reported for CC(=O)Nc1ccc(S(=O)(=O)N2CCN(C(=O)c3cccnc3)CC2)cc1 = 17.8

Please fill in: inhibition reported for Cc1ccc(CNC(=O)c2cncc(Br)c2)cc1 = 10.4

Please fill in: inhibition reported for O=C(CCCn1cnc([N+](=O)[O-])n1)Nc1ccc(Cl)cc1Cl = 8.7

Please fill in: inhibition reported for COc1ccc(NC(=O)c2ccc3c(c2)NC(=O)CS3)cc1S(=O)(=O)Nc1ccc(Br)cc1 = 54.5

Please fill in: inhibition reported for O=C(NCc1ccc2c(c1)OCO2)c1cc(-c2ccccc2)on1 = 15.7

Please fill in: inhibition reported for COc1ccc(NC(=O)c2cccc(S(=O)(=O)Nc3ccc(Br)cc3)c2)cn1 = 12.5

Please fill in: inhibition reported for Cc1ccc(NS(=O)(=O)c2cc(NC(=O)c3ccc4c(c3)NC(=O)CS4)ccc2Cl)c(C)c1 = 59.3

Please fill in: inhibition reported for CN(C)c1ccc(/C=N/NC(=O)c2nonc2N)cc1[N+](=O)[O-] = 12.7
